Values compiled from the supplement of paper PMC11208160.

measurement-protocol: recombinant barcode read abundance after kanamycin selection (control-corrected) (log10(CPM+1)); higher = more efficient recombination; sequences stand for … in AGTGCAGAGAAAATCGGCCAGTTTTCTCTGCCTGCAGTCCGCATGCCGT…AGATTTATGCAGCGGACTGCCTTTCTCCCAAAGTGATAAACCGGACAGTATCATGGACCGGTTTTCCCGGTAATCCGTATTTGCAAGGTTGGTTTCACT; site = the 11-nt target
Everything with recombinant barcode read abundance (log10) lower than 0.1 is Not fulfilled; everything else, including exactly 0.1, is Fulfilled.

[in] Is it the case that GTCTCACCTTGGGTTCTAACCTGTTGCGG (site GTCTCACCTCC) has recombinant barcode read abundance (log10) reaching or exceeding 0.1?
[out] Fulfilled

[in] Hello, I need to know if CCTGTATCTTGGGTTCTAACCTGTTGCCT (site TCTGTATCTAG) has measured recombinant barcode read abundance (log10) not below 0.1. Thanks!
[out] Not fulfilled

[in] Check if recombinant barcode read abundance (log10) >= 0.1 (inclusive). Item: AGGACTACTTGGGTTCTAACCTGTTGCCT (site AGGACTACTAG)
[out] Fulfilled

[in] Would you say GACGTGCCTTGGGTTCTAACCTGTTGCCG (site CTTAGTACTAT) shows recombinant barcode read abundance (log10) at minimum 0.1?
[out] Fulfilled

[in] State whether the measured recombinant barcode read abundance (log10) reaches 0.1, counting equality as reaching it, for CAAAACTCTTGGGTTCTAACCTGTTGCTT (site TCCCCGGCTCC)
[out] Not fulfilled

[in] Hi, just wondering whether TATTCTCCTTGGGTTCTAACCTGTTGCTT (site TATTCTCCTAG) shows recombinant barcode read abundance (log10) of 0.1 or higher.
[out] Not fulfilled

[in] Reported recombinant barcode read abundance (log10) at or above 0.1? CTCATTCCTTGGGTTCTAACCTGTTGCGT (site CTCATTCCTAC)
[out] Fulfilled

[in] Does AGTTCCACTTGGGTTCTAACCTGTTGCCT (site AGTTCCACTAG) have a reported recombinant barcode read abundance (log10) of at least 0.1?
[out] Fulfilled

* * *

measurement-protocol: recombinant UMI read abundance after kanamycin selection (control-corrected) (log10(CPM+1)); higher = more efficient recombination; extreme values may be limits of the assay; sequences stand for … in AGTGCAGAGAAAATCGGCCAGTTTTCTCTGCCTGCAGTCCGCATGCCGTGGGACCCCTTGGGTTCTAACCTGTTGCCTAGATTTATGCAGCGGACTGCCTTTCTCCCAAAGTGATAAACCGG…AGGTTGGTTTCACT; site = the 11-nt donor
Ranges used to classify recombinant UMI read abundance (log10): bucket A: < 0.01; bucket B: ≥ 0.01 and < 2; bucket C: ≥ 2

[in] Band for GCCACGCCATGGACCGGTTTTCCCGGTAATCCGTATTTGTA (site GCCACACCTTA) ?
[out] bucket A

* * *

measurement-protocol: recombinant barcode read abundance after kanamycin selection (control-corrected) (log10(CPM+1)); higher = more efficient recombination; sequences stand for … in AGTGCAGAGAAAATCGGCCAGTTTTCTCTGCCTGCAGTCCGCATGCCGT…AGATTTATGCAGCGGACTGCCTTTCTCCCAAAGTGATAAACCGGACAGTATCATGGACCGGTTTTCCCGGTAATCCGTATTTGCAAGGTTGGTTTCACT; site = the 11-nt target
test-readout: recombinant barcode read abundance (log10)
Answers are plain numbers.

Previously resolved entries follow.
Record summary for CTAGTCTCTTGGGTTCTAACCTGTTGCGT (site CTAGTCTCTAC) : reported recombinant barcode read abundance (log10) = 3.07

Record summary for TAGTTTGCTTGGGTTCTAACCTGTTGCCG (site ACCGACCCTAT) : reported recombinant barcode read abundance (log10) = 0.00726

Looking up TAGAGCACTTGGGTTCTAACCTGTTGCCT (site TAGAGCACTAG) , I see its recombinant barcode read abundance (log10) listed as 0.644

Lab book: recombinant barcode read abundance (log10) of GGGCACTCTTGGGTTCTAACCTGTTGCCT (site GGGCACTCTAG) noted as 1.22

Reported recombinant barcode read abundance (log10) for CGCTTGTCTTGGGTTCTAACCTGTTGCTT (site CGCTTGTCTAA) was 0.0711

For ATAACGGCTTGGGTTCTAACCTGTTGCCT (site GACGGACCTTA) the sequence record lists recombinant barcode read abundance (log10) as 0.0648

Reported recombinant barcode read abundance (log10) ( AGCCCTCCTTGGGTTCTAACCTGTTGCTG (site AGCCCTCCTGA) ) = 0.109

Per the records, this sequence ( TGGCAGCCTTGGGTTCTAACCTGTTGCCT (site TGGCAGGCTAG) ) has recombinant barcode read abundance (log10) equal to 0.231

So for TGTCGGACTTGGGTTCTAACCTGTTGCAA (site TGTCGGACTGT) , the logged recombinant barcode read abundance (log10) turned out to be 0.0423

Lab note: AACAGTTCTTGGGTTCTAACCTGTTGCCT (site AACAGTTCTAG) gave recombinant barcode read abundance (log10) of 0.749

Please state recombinant barcode read abundance (log10) for every sequence in the list that follows.
1. CTTTGAACTTGGGTTCTAACCTGTTGCTA (site TCGATCCCTAC)
2. GTCGCGACTTGGGTTCTAACCTGTTGCCT (site GTCGCGGCTAG)

[out]
1: 0.102; 2: 0.145

I would be grateful if you could provide recombinant barcode read abundance (log10) for each of the following entries.
1. TGAGCTACTTGGGTTCTAACCTGTTGCAC (site TGTGCGACTGT)
2. TGTGCTACTTGGGTTCTAACCTGTTGCAC (site GACCTATCTAG)
3. AGTCTAGCTTGGGTTCTAACCTGTTGCCC (site AGTCTAGCTCG)
4. TTAAGCTCTTGGGTTCTAACCTGTTGCCT (site GTAAGCTCTAG)
5. TAAGTCCCTTGGGTTCTAACCTGTTGCCT (site GAAGTCCCTAG)
6. CCTCGCACTTGGGTTCTAACCTGTTGCGA (site CCTTGCACTTC)
7. ACTCAGGCTTGGGTTCTAACCTGTTGCCG (site ACTCAGGCTCG)

[out]
0.0102
0.327
1.16
0
0.017
0.0861
0.541

Answer for every listed entry: what is its recombinant barcode read abundance (log10)? The entries follow.
1. TAGTCCTCTTGGGTTCTAACCTGTTGCTT (site TAGTCCTCTGA)
2. ACCTACCCTTGGGTTCTAACCTGTTGCGT (site ACCTACCCTAC)

[out]
0.13
1.54
